target-desc: SARS-COV-2 3CLpro/Mpro protease (Severe acute respiratory syndrome coronavirus 2 (2019-nCoV) (SARS-CoV-2), UniProt P0DTD1)
test-protocol: Inhibitory effect on SARS-COV-2 3CLpro/Mpro protease by fluorescence resonance energy transfer
Assay type: biochemical
setup-conditions: activity intervals A-D, read-out: IC50 (nM), Inhibition on SARS-CoV-2 3CLpro/Mpro protease
measurement-type: IC50

Exercise: Quickly give me recorded IC50 for CNc1cncc(C(=O)N2C[C@H](Nc3c(C(=O)N4C[C@@H](C)O[C@@H](C)C4)cc(Br)cc3[N+](=O)[O-])C[C@H]2C(=O)N2CCNC(=O)C2)c1 [Example 364]
Key: 50 to 100 nM

Exercise: Using the record for CNc1cncc(C(=O)N2CCC[C@@H](Nc3c(C(=O)N4CCC5(CCCN5)CC4)cc(Br)cc3[N+](=O)[O-])C2)c1 [Example 280] , state its measured IC50.
Key: 10 to 50 nM

Exercise: Kindly indicate its recorded IC50. Item: COCCN1CCN(C(=O)c2cc(Br)cc([N+](=O)[O-])c2N[C@H]2CN(C(=O)c3cncc(I)c3)CC2(F)F)CC1 [Example 208]
Key: 10 to 50 nM

Exercise: Give recorded IC50. O=C(c1cc(=O)[nH]c(=O)[nH]1)N1CCC[C@@H](Nc2c(C(=O)N3CCC(F)(F)CC3)cc(Br)cc2[N+](=O)[O-])C1 [Example 53]
Key: 50 to 100 nM

Exercise: Look up and state reported IC50 for CNc1cncc(C(=O)N2C[C@H](Nc3c(C(=O)N4C[C@@H](C)O[C@@H](C)C4)cc(Br)cc3[N+](=O)[O-])[C@@H](OCc3ccc(F)cn3)C2)c1 [Example 459]
Key: 10 to 50 nM

Exercise: For the compound CNc1cncc(C(=O)N2CCC[C@@H](Nc3c(C(=O)N4C[C@H](C)C[C@H](C)C4)cc(Br)cc3[N+](=O)[O-])C2)c1 [Example 251] , give its reported IC50.
Key: 50 to 100 nM

* * *

target-desc: SARS-COV-2 3CLpro/Mpro protease (Severe acute respiratory syndrome coronavirus 2 (2019-nCoV) (SARS-CoV-2), UniProt P0DTD1)
test-protocol: Inhibitory effect on SARS-COV-2 3CLpro/Mpro protease by fluorescence resonance energy transfer
Assay type: biochemical
setup-conditions: activity intervals A-D, read-out: IC50 (nM), Inhibition on SARS-CoV-2 3CLpro/Mpro protease
measurement-type: IC50

The following compounds have reported results that may help.
>>> recorded_measurement("CNc1cncc(C(=O)N2C[C@H](Nc3c(C(=O)N4CCOC[C@H]4C)cc(Br)cc3[N+](=O)[O-])[C@@H](OC)C2)c1")
"10 to 50 nM"
>>> recorded_measurement("O=C(c1cc(Br)cc([N+](=O)[O-])c1N[C@@H]1CCCN(C(=O)c2cnnc3ccccc23)C1)N1CCCCC1 [Example 11]")
"50 to 100 nM"
>>> recorded_measurement("Cc1cc(C(=O)N2C[C@H](Nc3c(C(=O)N4CCC5(CC4)CC5)cc(Br)cc3[N+](=O)[O-])C3(CC3)C2)cc(=O)[nH]1")
"10 to 50 nM"
>>> recorded_measurement("Cc1cc(C(=O)N2CCC[C@@H](Nc3c(C(=O)N4CC5CC5C4)cc(Br)cc3[N+](=O)[O-])C2)cc(=O)[nH]1 (stereo partly shown)")
"50 to 100 nM"
>>> recorded_measurement("Cc1cc(C(=O)N2CCC[C@@H](Nc3c(C(=O)N4CCCCC4)cc(Br)cc3[N+](=O)[O-])C2)cc(=O)[nH]1")
"10 to 50 nM"
>>> recorded_measurement("[2H]C([2H])([2H])Nc1cncc(C(=O)N2C[C@H](Nc3c(C(=O)N4C[C@@H](C)O[C@@H](C)C4)cc(Br)cc3[N+](=O)[O-])[C@@H](OC)C2)c1")
"10 to 50 nM"
>>> recorded_measurement("C[C@@H]1CN(C(=O)c2cc(Br)cc([N+](=O)[O-])c2N[C@@H]2CCCN(C(=O)C3CCCOC3)C2)C[C@H](C)O1 (stereo partly shown)")
"10 to 50 nM"
>>> recorded_measurement("O=C(N[C@H]1CCCC[C@H]1Nc1c(C(=O)N2CCC(O)CC2)cc(Br)cc1C(F)(F)F)c1cncc2cc(Cl)ccc12")
"10 to 50 nM"
>>> recorded_measurement("CNc1cncc(C(=O)N2CCC[C@@H](Nc3c(C(=O)N4CCC(N5CCOCC5)CC4)cc(Br)cc3[N+](=O)[O-])C2)c1")
"10 to 50 nM"
>>> recorded_measurement("O=C(c1cc(Br)cc([N+](=O)[O-])c1N[C@@H]1CCCN(C(=O)c2cc(=O)[nH]c3ccccc23)C1)N1CCN(CC(F)(F)F)CC1")
"10 to 50 nM"

Exercise: Supply recorded IC50 for Cc1cc(C(=O)N2CC(Nc3c(C(=O)N4CCCCC4)cc(Br)cc3[N+](=O)[O-])C(F)(F)C2)cc(=O)[nH]1 (stereo not shown) here.
Key: 50 to 100 nM

Exercise: Supply recorded IC50 for `COCCN1[C@H](C)CN(C(=O)c2cc(Br)cc([N+](=O)[O-])c2N[C@@H]2CCOC[C@@H]2NC(=O)c2cncc3ccccc23)C[C@@H]1C` here.
Key: 10 to 50 nM

Exercise: Quickly give me recorded IC50 for CNc1cncc(C(=O)N2CC(Nc3c(C(=O)N4C[C@H](C)C[C@H](C)C4)cc(Br)cc3[N+](=O)[O-])C(F)(F)C2)c1 (stereo partly shown)
Key: 10 to 50 nM

* * *

Reported values of IC50 for individual entries
target-desc: SARS-COV-2 3CLpro/Mpro protease (Severe acute respiratory syndrome coronavirus 2 (2019-nCoV) (SARS-CoV-2), UniProt P0DTD1)
test-protocol: Inhibitory effect on SARS-COV-2 3CLpro/Mpro protease by fluorescence resonance energy transfer
Type: biochemical
setup-conditions: activity intervals A-D, read-out: IC50 (nM), Inhibition on SARS-CoV-2 3CLpro/Mpro protease

>>> recorded_measurement("O=C1CN(C(=O)c2cc(Br)cc([N+](=O)[O-])c2N[C@@H]2CCCC[C@@H]2NC(=O)c2cncc3cc(Cl)ccc23)CCN1 [Example 25]")
"10 to 50 nM"
>>> recorded_measurement("CNc1cncc(C(=O)N2CC(Nc3c(C(=O)N4CCN(CC(F)(F)F)CC4)cc(Br)cc3[N+](=O)[O-])C(F)(F)C2)c1 (stereo not drawn) [Example 98]")
"10 to 50 nM"
>>> recorded_measurement("CNc1cncc(C(=O)N2CCC[C@@H](Nc3c(C(=O)N4CCN(C(=O)C(F)(F)F)CC4)cc(Br)cc3[N+](=O)[O-])C2)c1 [Example 23]")
"10 to 50 nM"
>>> recorded_measurement("CC1(C)C2CN(C(=O)c3cc(Br)cc([N+](=O)[O-])c3N[C@@H]3CCCN(C(=O)c4cncc5ccccc45)C3)CC21 (stereo partly drawn) [Example 7]")
"10 to 50 nM"
>>> recorded_measurement("CNc1cnc(F)c(C(=O)N2C[C@H](Nc3c(C(=O)N4C[C@@H](C)O[C@@H](C)C4)cc(Br)cc3[N+](=O)[O-])[C@@H](OC)C2)c1 [Example 406]")
"50 to 100 nM"

Exercise: Complete the entry with IC50 for CNc1cncc(C(=O)N2CCC[C@@H](Nc3c(C(=O)N4CCCOCC4)cc(Br)cc3[N+](=O)[O-])C2)c1 [Example 305]
Key: 10 to 50 nM

* * *

target-desc: SARS-COV-2 3CLpro/Mpro protease (Severe acute respiratory syndrome coronavirus 2 (2019-nCoV) (SARS-CoV-2))
test-protocol: Inhibitory effect on SARS-COV-2 3CLpro/Mpro protease by fluorescence resonance energy transfer
Format: biochemical
setup-conditions: activity intervals A-D, read-out: IC50 (nM), Inhibition on SARS-CoV-2 3CLpro/Mpro protease
# reported IC50; entries follow

Below are worked cases with known answers.
>>> recorded_measurement("CNc1cncc(C(=O)N2CCC[C@@H](Nc3c(C(=O)N4CC(C)O[C@H](C(F)(F)F)C4)cc(Br)cc3[N+](=O)[O-])C2)c1 (stereo partly drawn) [Example 345]")
"10 to 50 nM"
>>> recorded_measurement("C[C@@H]1CN(C(=O)c2cc(Br)cc([N+](=O)[O-])c2N[C@@H]2CCCN(C(=O)[C@H]3CC(=O)Nc4ccccc43)C2)C[C@H](C)O1 [Example 274]")
"< 10 nM"
>>> recorded_measurement("CNc1cncc(C(=O)N2C[C@H](Nc3c(C(=O)N4C[C@@H](C)O[C@@H](C)C4)cc(Br)cc3[N+](=O)[O-])C[C@H]2C(=O)Nc2cn(C)c(=O)cc2Cl)c1 [Example 410]")
"100 to 200 nM"
>>> recorded_measurement("CNc1cncc(C(=O)N2C[C@H](Nc3c(C(=O)N4CCCCC4)cc(Br)cc3[N+](=O)[O-])C(F)(F)C2)c1 [Example 81]")
"10 to 50 nM"
>>> recorded_measurement("Cc1cncc(C(=O)N2CCC[C@@H](Nc3c(C(=O)N4CCC(F)(F)CC4)cc(Br)cc3[N+](=O)[O-])C2)c1 [Example 74]")
"50 to 100 nM"

Exercise: Look up and state reported IC50 for CNc1cncc(C(=O)N2CCC[C@@H](Nc3c(C(=O)N4CCOC(C)(C)C4)cc(Br)cc3[N+](=O)[O-])C2)c1 [Example 340]
Key: 10 to 50 nM

Exercise: Annotate the molecule CNc1cncc(C(=O)N2C[C@H](Nc3c(C(=O)N4C[C@@H](C)O[C@@H](C)C4)cc(Br)cc3[N+](=O)[O-])CC[C@@H]2C#N)c1 [Example 403] with its measured IC50.
Key: 50 to 100 nM

Exercise: Give a short answer stating reported IC50 for CNc1cncc(C(=O)N2CCC[C@@H](Nc3c(C(=O)N4CCc5oncc5C4)cc(Br)cc3[N+](=O)[O-])C2)c1 [Example 309] .
Key: 10 to 50 nM
